- target_or_test_system: T1, human GIP receptor (human, UniProt P48546 22-466)
- T1 construct: whole, on cells; also called hGIPR
- T1 sequence (looked up): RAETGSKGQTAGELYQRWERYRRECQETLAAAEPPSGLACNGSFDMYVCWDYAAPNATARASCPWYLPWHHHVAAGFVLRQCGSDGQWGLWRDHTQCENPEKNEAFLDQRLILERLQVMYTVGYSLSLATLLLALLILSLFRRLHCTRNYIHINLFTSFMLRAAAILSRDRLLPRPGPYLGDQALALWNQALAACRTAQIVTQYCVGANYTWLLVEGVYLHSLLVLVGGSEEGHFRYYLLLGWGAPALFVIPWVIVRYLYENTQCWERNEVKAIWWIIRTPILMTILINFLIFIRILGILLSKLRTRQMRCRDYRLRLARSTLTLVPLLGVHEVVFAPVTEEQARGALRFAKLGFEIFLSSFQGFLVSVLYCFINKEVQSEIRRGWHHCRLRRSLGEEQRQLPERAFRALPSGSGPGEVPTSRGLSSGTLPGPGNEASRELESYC
- assay_summary: 125I-hGIP competition binding, COS-7/hGIPR, 0.1% casein;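 further: nonspecific binding defined as radioligand binding measured on untransfected cells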
Ends that are not written are not given here. * marks the point of attachment. Stearoyl = CCCCCCCCCCCCCCCCCC(=O)*; Myristoyl = CCCCCCCCCCCCCC(=O)*
property_measured: logIC50 (log M)
Entry rule: numbers only, all in log M.

Task: Requested read-out: logIC50. Entry: {C18 fatty acyl}-TFISDYSIAMDKIHQQDFVNWLLAQK-NH2 [AT127 [hGIP(5-30)NH2-C18/5]]
Output: -5.8

Task: Requested read-out: logIC50. Entry: EGTFISDYSIAMDK(Myristoyl)IHQQDFVNWLLAQK-NH2 [AT111 [hGIP(3-30)NH2-C14/16]]
Output: -6.4

Task: Requested read-out: logIC50. Entry: EGTFISDYSIAMDK(Stearoyl)IHQQDFVNWLLAQK-NH2 [AT114 [hGIP(3-30)NH2-C18/16]]
Output: -6.3

Task: Requested read-out: logIC50. Entry: TKISDYSIAMDKIHQQDFVNWLLAQK (C16-diacid fatty acyl on Lys 6 (GIP numbering); C-terminal amide) [AT168 [hGIP(5-30)NH2[F6K]-C16diacid/6]]
Output: -7.3
